I'd appreciate it if you could supply boiling point values for the items below.
Numbers only, in °C.

Solved cases below.
In [3]: df
Out[3]:
                             compound   assay_metric  unit_info  measured_result
0                 COc1ccc(NC(C)=O)cc1  boiling point         °C              335
1  CC(O)CO (configuration not stated)  boiling point         °C              188
2                       CCc1cccc(C)n1  boiling point         °C              160
3                          ClCCCCCCCl  boiling point         °C              204

Field: boiling point. Fill in for each record below.
1. Sc1ccc(Cl)cc1
2. C=CCCCCC(=O)O
3. C=CC(=O)OCC
4. Cc1ccc2cc(N(C)C)ccc2n1

Return:
[206, 226, 99.4, 319]

###

assay metric: boiling point (°C)
Answers are plain numbers, in °C.

           compound  measured_result
0  C=CCc1ccc(OC)cc1              216
1      Nc1cccc(F)c1              188
2          BrCCCCBr              197
3       CCOCC(=O)Cl              125
4    Brc1cncc(Br)c1              222
5          CC#CCCCC              112
6          Cn1ccnc1              196
7    COc1c(C)cccc1C              182

List reported boiling point for each of these compounds:
1. CC(=O)c1cccc(Cl)c1
2. C=CCSSCC=C
3. CC[Si](F)(F)CC

Return:
244
188
61

Hi there! I need boiling point for each item below, if you can.
1. CCCc1ccccc1O
2. COc1ccc(C)cc1OC
3. CC1(N)CCCC1
4. FCCCCCCl

Return:
220
220
121
143

# map each compound to its boiling point
1. CSCC(C)C
2. CC1CNCC(C)O1 (stereo not drawn)
3. O=[N+]([O-])c1cccc(F)c1
4. CC(C)(C)c1cc(O)ccc1O
5. CC(=O)CC(C)C(C)=O (stereo not drawn)

Return:
1. 112
2. 147
3. 199
4. 273
5. 196

Could I get boiling point for every one of these entries?
1. O=C1OC(=O)C(F)(F)C(F)(F)C1(F)F
2. C=CCS
3. Cc1cc(C)cc(C(C)(C)C)c1

Return:
1: 72; 2: 65; 3: 207

###

Please respond with reported boiling point for every item in the list.
Give bare numbers, in °C.

Please review the following examples before continuing.
In [3]: df
Out[3]:
        smiles_text   assay_metric  unit_info  measured_result
0  FC(F)(F)c1ccccc1  boiling point         °C              102
1           CC(N)=O  boiling point         °C              222
2     C/C=C/C=C/C=O  boiling point         °C              174
3  Cc1ccc(Cl)c(C)c1  boiling point         °C              184
4   CN(C)S(=O)N(C)C  boiling point         °C              209

Enquiry: Tell us which boiling point value is on record for C=C(C)C(C)(C)CC
Return: 108
